molecular target: UniProt P35462; assay: Displacement of [125I]-IABN from human dopamine D3 receptor expressed in HEK293 cells after 60 mins by gamma counting; format: cell-based
Sequence (P35462 whole entry): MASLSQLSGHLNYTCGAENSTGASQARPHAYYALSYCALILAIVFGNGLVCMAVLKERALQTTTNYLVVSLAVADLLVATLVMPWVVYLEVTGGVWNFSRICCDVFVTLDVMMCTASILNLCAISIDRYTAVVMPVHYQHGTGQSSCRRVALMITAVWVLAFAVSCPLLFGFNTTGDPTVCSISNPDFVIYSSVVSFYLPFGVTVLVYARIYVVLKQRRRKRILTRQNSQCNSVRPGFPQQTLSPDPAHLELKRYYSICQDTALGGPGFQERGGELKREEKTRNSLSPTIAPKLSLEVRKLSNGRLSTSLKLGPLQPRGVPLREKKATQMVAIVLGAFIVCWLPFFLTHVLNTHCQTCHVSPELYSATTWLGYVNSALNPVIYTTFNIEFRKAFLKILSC
pKi: −log10 of the molar value.
// thresholds for pKi classes: category 1 (below 7), category 2 (7 to below 8), category 3 (8 or more)

CN(CCC(F)CN1CCN(c2cccc(Cl)c2Cl)CC1)Cc1ccc2c(c1)Cc1ccccc1-2 (centres undefined) | category 1
O=C(NCCC(F)CN1CCN(c2cccc(Cl)c2Cl)CC1)c1ccc2c(c1)Cc1ccccc1-2 (centres undefined) | category 3

# bin lookup: classify COc1ccccc1N1CCN(CC(F)CCNC(=O)c2cc3ccccc3o2)CC1 (centres undefined) by its pKi
category 2

Tag the class for O=C(NCCC(F)CN1CCN(c2cccc(Cl)c2Cl)CC1)c1cc2ccccc2s1 (centres undefined)
category 3

###

Below are Ki values recorded for UniProt:P28223.
Sequence (P28223 whole entry): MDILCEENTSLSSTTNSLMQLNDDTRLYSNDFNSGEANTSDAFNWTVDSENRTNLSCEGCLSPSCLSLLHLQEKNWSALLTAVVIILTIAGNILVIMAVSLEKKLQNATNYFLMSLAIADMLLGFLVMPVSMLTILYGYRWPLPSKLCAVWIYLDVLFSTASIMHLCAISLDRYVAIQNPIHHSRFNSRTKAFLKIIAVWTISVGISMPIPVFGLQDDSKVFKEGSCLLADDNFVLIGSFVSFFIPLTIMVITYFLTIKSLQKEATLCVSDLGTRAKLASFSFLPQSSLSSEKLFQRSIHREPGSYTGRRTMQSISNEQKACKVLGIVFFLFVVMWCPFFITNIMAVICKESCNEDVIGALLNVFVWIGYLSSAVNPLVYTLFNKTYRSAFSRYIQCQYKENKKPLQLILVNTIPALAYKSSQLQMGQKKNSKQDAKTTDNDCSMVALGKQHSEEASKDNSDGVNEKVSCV

Use these answered entries as a reference point.
COc1ccccc1N1CCN(CC(F)CCNC(=O)c2ccc3c(c2)Cc2ccccc2-3)CC1 (stereo not drawn) | > 10 µM
O=C(NCCC(F)CN1CCN(c2cccc(Cl)c2Cl)CC1)c1ccc2c(c1)Cc1ccccc1-2 (stereo not drawn) | 4.8 µM

Look up Ki: COc1ccc2[nH]c(C(=O)NCCC(F)CN3CCN(c4ccccc4OC)CC3)cc2c1 (stereo not drawn)
3.54 µM

###

biological target: UniProt P35462
pKi by entry:
// field semantics: pKi = negative decimal log of concentration (mol/L)

Identify the measured pKi of CCCN(CCCCN1CCN(c2ccccc2OC)CC1)Cc1ccc2c(c1)Cc1ccccc1-2 for UniProt P35462.
7.15

Lab note: need pKi for COc1ccc2oc(C(=O)NCCC(F)CN3CCN(c4cccc(Cl)c4Cl)CC3)cc2c1 (stereo not given) on UniProt P35462, anyone have it?
8.10

Requested read-out pKi, target or system UniProt P35462, entry CCCN(CCCCN1CCN(c2cccc(Cl)c2Cl)CC1)Cc1ccc2c(c1)Cc1ccccc1-2
6.89

Query the reported pKi for UniProt P35462; item: O=C(NCCC(F)CN1CCN(c2cccc(Cl)c2Cl)CC1)c1ccc(-c2ccccn2)cc1 (stereo not given)
8.21

Hi! What's the reported pKi for CCCN(CCCCN1CCN(c2ccccc2OC)CC1)Cc1cc2ccccc2s1 on UniProt P35462?
7.17
